- Tested on: P388
- experimental-details: Growth inhibition of mouse P388 cells after 48 hrs by Z1 Beckman/Coulter particle counter analysis
- Assay type: functional
- test-conditions: P388, 48 h, read-out: ED50 (the source's name)
Parameter: EC50. Scope: all listed entries.
measured-attribute: EC50 (µg/mL)

• COc1ccc(/C=C\c2cc(O)c(OC)c(OC)c2)cc1O = 0.26
• COc1ccc(/C=C\c2cc(I)c(OC)c(I)c2)cc1OP(=O)(O)O.OCN(CO)CO.OCN(CO)CO = 0.026
• C1CCNCC1.C1CCNCC1.COc1ccc(/C=C\c2cc(I)c(OC)c(I)c2)cc1OP(=O)(O)O = 0.011

* * *

- System: NCI-H460
- experimental-details: Growth inhibition of human NCI-H460 cells after 48 hrs by sulforhodamine B assay
- Assay type: functional
- test-conditions: NCI-H460, 48 h
measured-attribute: GI50 (µg/mL)

- COc1ccc(/C=C\c2cc(OC)c(OC)c(OC)c2)cc1O [COMBRETASTATIN A4]: 0.0006
- COc1ccc(/C=C\c2cc(I)c(OC)c(OC)c2)cc1OP(=O)([O-])[O-].[Na+].[Na+]: 0.017
- COC(=O)[C@@H](N)Cc1c[nH]c2ccccc12.COC(=O)[C@@H](N)Cc1c[nH]c2ccccc12.COc1ccc(/C=C\c2cc(I)c(OC)c(OC)c2)cc1OP(=O)(O)O: 0.0034
- COc1ccc(/C=C\c2cc(I)c(OC)c(OC)c2)cc1OP(=O)([O-])[O-].[K+].[K+]: 0.0043
- COC(=O)CN.COC(=O)CN.COc1ccc(/C=C\c2cc(I)c(OC)c(I)c2)cc1OP(=O)(O)O: 0.03
- C1COCCN1.C1COCCN1.COc1ccc(/C=C\c2cc(I)c(OC)c(I)c2)cc1OP(=O)(O)O: 0.033
- COC(=O)[C@@H](N)Cc1c[nH]c2ccccc12.COC(=O)[C@@H](N)Cc1c[nH]c2ccccc12.COc1ccc(/C=C\c2cc(I)c(OC)c(I)c2)cc1OP(=O)(O)O: 0.033
- COc1ccc(/C=C\c2cc(I)c(OC)c(I)c2)cc1OP(=O)([O-])[O-].[K+].[K+]: 0.046
- COc1ccc(/C=C\c2cc(I)c(OC)c(OC)c2)cc1O [IODOCOMBSTATIN]: 0.00029
- COc1ccc(/C=C/c2cc(I)c(OC)c(I)c2)cc1O: 3.4
- C1CCNCC1.C1CCNCC1.COc1ccc(/C=C\c2cc(I)c(OC)c(OC)c2)cc1OP(=O)(O)O: 0.0036
- COc1ccc(/C=C\c2cc(O)c(OC)c(OC)c2)cc1O: 0.19
- COc1ccc(/C=C/c2cc(I)c(OC)c(OC)c2)cc1O [DIIODOCOMBSTATIN]: 0.21
- COc1ccc(/C=C\c2cc(I)c(OC)c(OC)c2)cc1OP(=O)([O-])[O-].[Li+].[Li+]: 0.0039
- COc1ccc(/C=C\c2cc(I)c(OC)c(I)c2)cc1OP(=O)([O-])[O-].[Li+].[Li+]: 0.05
- COc1ccc(/C=C\c2cc(I)c(OC)c(I)c2)cc1OP(=O)(O)O.OCN(CO)CO.OCN(CO)CO: 0.025
- C1CCNCC1.C1CCNCC1.COc1ccc(/C=C\c2cc(I)c(OC)c(I)c2)cc1OP(=O)(O)O: 0.025

* * *

Parameter: MIC. Scope: all listed entries.
- Test system: Neisseria gonorrhoeae
- experimental-details: Antibacterial activity against Neisseria gonorrhoeae ATCC 49226 by broth microdilution method
- Type: functional
measured-attribute: MIC

* COc1ccc(/C=C\c2cc(I)c(OC)c(OC)c2)cc1OP(=O)(O)O.OCN(CO)CO.OCN(CO)CO | 32 µg/mL
* C1COCCN1.C1COCCN1.COc1ccc(/C=C\c2cc(I)c(OC)c(OC)c2)cc1OP(=O)(O)O | 16 µg/mL
* C1COCCN1.C1COCCN1.COc1ccc(/C=C\c2cc(I)c(OC)c(I)c2)cc1OP(=O)(O)O | < 0.5 µg/mL
* COC(=O)CN.COC(=O)CN.COc1ccc(/C=C\c2cc(I)c(OC)c(I)c2)cc1OP(=O)(O)O | < 0.5 µg/mL
* COC(=O)[C@@H](N)Cc1c[nH]c2ccccc12.COC(=O)[C@@H](N)Cc1c[nH]c2ccccc12.COc1ccc(/C=C\c2cc(I)c(OC)c(I)c2)cc1OP(=O)(O)O | < 0.5 µg/mL
* COc1ccc(/C=C\c2cc(I)c(OC)c(I)c2)cc1OP(=O)([O-])[O-].[Li+].[Li+] | < 0.5 µg/mL
* C1CCNCC1.C1CCNCC1.COc1ccc(/C=C\c2cc(I)c(OC)c(I)c2)cc1OP(=O)(O)O | < 0.5 µg/mL
* COc1ccc(/C=C\c2cc(I)c(OC)c(I)c2)cc1OP(=O)([O-])[O-].[K+].[K+] | < 0.5 µg/mL
* COC(=O)[C@@H](N)Cc1c[nH]c2ccccc12.COC(=O)[C@@H](N)Cc1c[nH]c2ccccc12.COc1ccc(/C=C\c2cc(I)c(OC)c(OC)c2)cc1OP(=O)(O)O | 4 µg/mL
* COc1ccc(/C=C\c2cc(I)c(OC)c(I)c2)cc1OP(=O)(O)O.OCN(CO)CO.OCN(CO)CO | < 0.5 µg/mL
* COc1ccc(/C=C\c2cc(I)c(OC)c(I)c2)cc1OP(=O)([O-])[O-].[Na+].[Na+] | 32 µg/mL

* * *

- System: HUVEC
- experimental-details: Antiangiogenic activity in HUVEC assessed as reduction of number of junctions at 0.001 ug/ml after 24 hrs by matrigel assay relative to control
- Type: functional
- test-conditions: Homo sapiens
The source made the active and inactive calls. The calls are words filed in the database; no cut-off is given here.
Outcome codes: active, inactive

* COc1ccc(/C=C\c2cc(I)c(OC)c(I)c2)cc1O | active
* COc1ccc(/C=C\c2cc(I)c(OC)c(I)c2)cc1OP(=O)(O)O | inactive
* COc1ccc(/C=C\c2cc(I)c(OC)c(OC)c2)cc1OP(=O)(O)O | active
* COc1ccc(/C=C\c2cc(I)c(OC)c(OC)c2)cc1O | active

* * *

- System: SW-1736
- experimental-details: Growth inhibition of human SW1736 cells after 48 hrs by sulforhodamine B assay
- Type: functional
- test-conditions: SW-1736, 48 h
Parameter: GI50. Scope: all listed entries.
measured-attribute: GI50 (µg/mL)

• COc1ccc(/C=C\c2cc(I)c(OC)c(I)c2)cc1O = 1.2
• COc1ccc(/C=C\c2cc(I)c(OC)c(OC)c2)cc1O [IODOCOMBSTATIN] = 2.2

* * *

- Tested on: HUVEC
- experimental-details: Antiangiogenic activity in HUVEC assessed as cell growth at 0.001 ug/ml after 24 hrs by sulforhodamine B assay relative to control
- Type: functional, Homo sapiens
- test-conditions: Homo sapiens, HUVEC, 24 h; read-out: Activity
Parameter: growth at 0.001 µg/mL. Scope: all listed entries.
measured-attribute: growth at 0.001 µg/mL (%)

* COc1ccc(/C=C\c2cc(I)c(OC)c(OC)c2)cc1O [IODOCOMBSTATIN] | 14
* COc1ccc(/C=C\c2cc(I)c(OC)c(OC)c2)cc1OP(=O)([O-])[O-].[K+].[K+] | 10
* COc1ccc(/C=C\c2cc(I)c(OC)c(I)c2)cc1OP(=O)([O-])[O-].[K+].[K+] | 88
* COc1ccc(/C=C\c2cc(I)c(OC)c(I)c2)cc1O | 8

* * *

- System: NCI-H460
- experimental-details: Growth inhibition of human NCI-H460 cells after 48 hrs by sulforhodamine B assay
- Type: functional
- test-conditions: NCI-H460, 48 h
In plain terms, low GI50, meaning strictly below 4 ng/mL, gives t, and everything else gives f.

• COc1ccc(/C=C\c2cc(I)c(OC)c(I)c2)cc1O = t
• COc1ccc(/C=C\c2cc(OC)c(OC)c(OC)c2)cc1OP(=O)([O-])[O-].[Na+].[Na+] [FOSBRETABULIN DISODIUM] = f
• C1COCCN1.C1COCCN1.COc1ccc(/C=C\c2cc(I)c(OC)c(OC)c2)cc1OP(=O)(O)O = t
• COC(=O)CN.COC(=O)CN.COc1ccc(/C=C\c2cc(I)c(OC)c(OC)c2)cc1OP(=O)(O)O = t
• COc1ccc(/C=C\c2cc(I)c(OC)c(I)c2)cc1OP(=O)([O-])[O-].[Na+].[Na+] = f
• COc1ccc(/C=C\c2cc(F)c(OC)c(OC)c2)cc1O = t

* * *

- System: P388
- experimental-details: Growth inhibition of mouse P388 cells after 48 hrs by Z1 Beckman/Coulter particle counter analysis
- Type: functional
- test-conditions: P388, 48 h, read-out: ED50 (the source's name)
measured-attribute: EC50 (ng/mL)

• COc1ccc(/C=C\c2cc(I)c(OC)c(OC)c2)cc1OP(=O)([O-])[O-].[K+].[K+] = 2.1
• COc1ccc(/C=C\c2cc(F)c(OC)c(OC)c2)cc1O [FLUORCOMBSTATIN] = 2
• COc1ccc(/C=C\c2cc(OC)c(OC)c(OC)c2)cc1OP(=O)([O-])[O-].[Na+].[Na+] [FOSBRETABULIN DISODIUM] = 0.4
• COc1ccc(/C=C\c2cc(I)c(OC)c(I)c2)cc1OP(=O)([O-])[O-].[K+].[K+] = 3.4

Just for reference, ChEMBL document CHEMBL2021780 is where these values come from.
